system.under.test: purified recombinant human Aggrecanase-2 (Ag2t-Phe628-Strep) (Homo sapiens, UniProt Q9UNA0)
Construct: the form used is denoted as Ag2t-Phe628-Strep (MW=41,737)
Sequence (Q9UNA0 262-628): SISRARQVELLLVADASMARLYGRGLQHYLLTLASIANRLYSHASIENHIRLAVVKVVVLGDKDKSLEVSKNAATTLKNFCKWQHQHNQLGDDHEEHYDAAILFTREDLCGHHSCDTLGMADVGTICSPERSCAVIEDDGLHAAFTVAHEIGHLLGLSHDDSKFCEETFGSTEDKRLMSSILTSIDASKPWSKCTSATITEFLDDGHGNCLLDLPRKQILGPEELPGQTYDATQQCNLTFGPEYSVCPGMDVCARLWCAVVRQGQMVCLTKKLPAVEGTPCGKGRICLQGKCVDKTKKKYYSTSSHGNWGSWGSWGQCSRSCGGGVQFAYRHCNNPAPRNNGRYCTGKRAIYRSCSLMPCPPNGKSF
assay.remarks: In vitro fluorescence screen for Aggrecanase-2 inhibitors
Type: biochemical
condition.set: Table 2; read-out: Agg 2 IC50
quantity: pIC50
Please keep in mind that pIC50 is minus log10 of the molar concentration; only the number is needed.

Some molecules with recorded pIC50:
• COc1cccc(COc2ccc(-c3ccc(C(=O)N[C@@H](CCC(=O)O)C(=O)NC(C)(C)Cc4ccccc4)cc3)cc2)c1 [Example 19F] = 6.79
• O=C(O)CC[C@H](NC(=O)c1ccc2c(c1)C(=O)c1ccccc1-2)C(=O)NCCCCCCO [Example 8XXXXX] = 5.84
• CC(C)(NC(=O)[C@H](CCC(=O)O)NC(=O)C1c2ccccc2-c2ccccc21)c1ccccc1 [Example 8NNNNN] = 5.72

Okay, now this molecule:
Problem: Please give the measured pIC50 for this molecule: CCCCN(C)C(=O)[C@H](CCC(=O)O)NC(=O)c1ccc2c(c1)Cc1ccccc1-2 [Example 8FFFFFF]
Result: 4.74
